Source of measurements: ChEMBL document CHEMBL4406843

Test: Cytotoxicity against African green monkey Vero cells assessed as cell viability at 25 uM by MTT assay relative to control
Format: cell-based
Conditions: chlorocebus sabaeus, read-out: Activity
RECORDED ENDPOINT: viability at 25 µM
Form field: result (number plus unit)

Record excerpt, results attached:
[[record]]
molecule = "CSc1ccc(C(=O)C(c2ccc(Cl)c(Cl)c2)C(NC(=O)c2cccc(C)c2)c2cc3ccccc3s2)cc1 (stereo not drawn)"
recorded_endpoint = "viability at 25 µM"
endpoint_value = "92.1%"

[[record]]
molecule = "CCOC(=O)C(C(=O)c1ccc(OC)cc1)C(NC(C)=O)c1cccc2ccccc12 (stereo not drawn)"
recorded_endpoint = "viability at 25 µM"
endpoint_value = "99.2%"


Shifting focus to the molecule that follows.
Q. Identify measured viability at 25 µM corresponding to CSc1ccc(C(=O)/C(=C/c2cc3ccccc3s2)c2ccc(Cl)c(Cl)c2)cc1
A. 93.4%

###

Assay: Cytotoxicity against African green monkey Vero cells assessed as cell viability at 50 uM by MTT assay relative to control
Format: cell-based
Conditions: chlorocebus sabaeus, read-out: Activity
RECORDED ENDPOINT: viability at 50 µM
Form field: result (number plus unit)

Record excerpt, results attached:
[[record]]
compound = "CCOC(=O)C(C(=O)c1ccc(OC)cc1)C(NC(C)=O)c1cc(OC)ccc1Br (stereo not drawn)"
recorded_endpoint = "viability at 50 µM"
endpoint_value = "93.3%"

[[record]]
compound = "CSc1ccc(C(=O)C(c2ccc(Cl)c(Cl)c2)C(NC(=O)c2ccccc2)c2cccc3ccccc23)cc1 (stereo not drawn)"
recorded_endpoint = "viability at 50 µM"
endpoint_value = "93.9%"

[[record]]
compound = "CCOC(=O)C(C(=O)c1ccc(OC)cc1)C(NC(C)=O)c1ccc(C(C)(C)C)cc1 (stereo not drawn)"
recorded_endpoint = "viability at 50 µM"
endpoint_value = "92.3%"

[[record]]
compound = "CCOC(=O)C(C(=O)c1ccc(OC)cc1)C(NC(C)=O)c1ccc(C(C)C)cc1 (stereo not drawn)"
recorded_endpoint = "viability at 50 µM"
endpoint_value = "96.5%"

[[record]]
compound = "CSc1ccc(C(=O)C(c2ccc(Cl)c(Cl)c2)C(NC(=O)c2ccc(C)cc2)c2cc3ccccc3s2)cc1 (stereo not drawn)"
recorded_endpoint = "viability at 50 µM"
endpoint_value = "92.3%"

[[record]]
compound = "CCOC(=O)C(C(=O)c1ccc(OC)cc1)C(NC(C)=O)c1cc(OC)c(OC)c(OC)c1 (stereo not drawn)"
recorded_endpoint = "viability at 50 µM"
endpoint_value = "94.3%"

[[record]]
compound = "CSc1ccc(C(=O)/C(=C/c2cccnc2)c2ccc(Cl)c(Cl)c2)cc1"
recorded_endpoint = "viability at 50 µM"
endpoint_value = "89.6%"


Q. Identify measured viability at 50 µM corresponding to CSc1ccc(C(=O)C(c2ccc(Cl)c(Cl)c2)C(NC(=O)c2cccc(C)c2)c2cc3ccccc3s2)cc1 (stereo not drawn)
A. 90.6%

###

Test: Cytotoxicity against African green monkey Vero cells assessed as cell viability at 100 uM by MTT assay relative to control
Format: cell-based
Conditions: chlorocebus sabaeus, read-out: Activity
RECORDED ENDPOINT: viability at 100 µM (%)
Please reply with the bare figure in % and do not write the unit itself.

Record excerpt, results attached:
[[record]]
compound = "CCOC(=O)C(C(=O)c1ccc(OC)cc1)C(NC(C)=O)c1ccc(OC)c(OC)c1 (configuration not stated)"
recorded_endpoint = "viability at 100 µM"
endpoint_value = 88.5

[[record]]
compound = "CSc1ccc(C(=O)C(c2ccc(Cl)c(Cl)c2)C(NC(=O)c2ccc(C)cc2)c2cc3ccccc3s2)cc1 (configuration not stated)"
recorded_endpoint = "viability at 100 µM"
endpoint_value = 90.2

[[record]]
compound = "CSc1ccc(C(=O)/C(=C/c2ccccn2)c2ccc(Cl)c(Cl)c2)cc1"
recorded_endpoint = "viability at 100 µM"
endpoint_value = 89.6

[[record]]
compound = "CSc1ccc(C(=O)C(c2ccc(Cl)c(Cl)c2)C(NC(=O)c2ccccc2)c2cccc3ccccc23)cc1 (configuration not stated)"
recorded_endpoint = "viability at 100 µM"
endpoint_value = 89.2

[[record]]
compound = "CSc1ccc(C(=O)C(c2ccc(Cl)c(Cl)c2)C(NC(=O)c2ccc(Br)cc2)c2cccc3ccccc23)cc1 (configuration not stated)"
recorded_endpoint = "viability at 100 µM"
endpoint_value = 88.5

[[record]]
compound = "CSc1ccc(C(=O)C(c2ccc(Cl)c(Cl)c2)C(NC(=O)c2ccc(C)cc2)c2cccc3ccccc23)cc1 (configuration not stated)"
recorded_endpoint = "viability at 100 µM"
endpoint_value = 88.6


Shifting focus to the compound that follows.
Q. Identify measured viability at 100 µM corresponding to CCOC(=O)C(C(=O)c1ccc(OC)cc1)C(NC(C)=O)c1ccc(C(C)(C)C)cc1 (configuration not stated)
A. 89.5
